Ref: patent US8658351B2

# System: Rats
# ASSAY_OVERVIEW: Rat liver toxicant study: routine clinical chemistry (AST, ALT, TBIL, ALP)
# Assay type: in vivo
# STATED_CONDITIONS: low dose, day at which change was seen
READOUT: Clinical Chemistry TBIL

**Query** Looking for the measured Clinical Chemistry TBIL of `CN(C)CCN(Cc1cccs1)c1ccccn1` , can you help?
**Result** Day5

**Query** Could you tell me which Clinical Chemistry TBIL is on file for CS(=O)(=O)Nc1ccc([N+](=O)[O-])cc1Oc1ccccc1 [Nimesulide] ?
**Result** Day2

**Query** So what does the record say about Clinical Chemistry TBIL for CCSCCC(N)C(=O)O (racemic) ?
**Result** Day2~

**Query** Record request: Clinical Chemistry TBIL value, item S=C=Nc1cccc2ccccc12 [ANIT, 1-naphthyl isothiocyanate]
**Result** Day5

====

# System: Rats
# ASSAY_OVERVIEW: Rat liver toxicant study: routine clinical chemistry (AST, ALT, TBIL, ALP)
# Type: in vivo
# STATED_CONDITIONS: high dose, day at which change was seen
READOUT: Clinical Chemistry TBIL

Completed entries (count: 4):
**Query** Endpoint output: Clinical Chemistry TBIL of S=C=Nc1cccc2ccccc12 [ANIT, 1-naphthyl isothiocyanate] . Value?
**Result** Day2~

**Query** Recorded Clinical Chemistry TBIL of CS(=O)(=O)Nc1ccc([N+](=O)[O-])cc1Oc1ccccc1 [Nimesulide] , please.
**Result** Day2

**Query** Sample `CN(C)CCN(Cc1cccs1)c1ccccn1` — what was its Clinical Chemistry TBIL?
**Result** Day2~

**Query** I am curious: what Clinical Chemistry TBIL value has been reported for CC(C)C(=O)Nc1ccc([N+](=O)[O-])c(C(F)(F)F)c1 [Flutamide] ?
**Result** Day2

Turning now to a further record.
**Query** # input molecule: CCSCCC(N)C(=O)O (racemic) ; wanted: its Clinical Chemistry TBIL
**Result** Day2~

====

# Test system: Rats
# ASSAY_OVERVIEW: Rat liver toxicant study: liver histopathology
# STATED_CONDITIONS: rats, daily single oral dose, high dose; day at which change was seen (samples day 2 and day 5)
READOUT: Histopathology (Necrosis)

**Query** Tell me reported Histopathology (Necrosis) for O=C(O)COc1nn(Cc2ccccc2)c2ccccc12 [Bendazac] , tested with Rats.
**Result** Day5

**Query** Fill in the recorded Histopathology (Necrosis) for this compound, with Rats as test system: CC(=O)Nc1ccc(O)cc1 [Acetaminophen]
**Result** Day2

**Query** Can you look up Histopathology (Necrosis) on Rats for CN(C)CCN(Cc1cccs1)c1ccccn1 [Methapyrilene] ?
**Result** Day2~

**Query** Lab request: please report Histopathology (Necrosis) under test system Rats for Clc1ccccc1CN1CCc2sccc2C1 [Ticlopidine]
**Result** Day5
